Readings of melting point for the listed molecules

molecule	reported-value
O=C(COc1cc(C(=O)O)cc2cc(Cl)cc(Cl)c12)NCc1ccccn1 [Example 103]	> 240 °C (dec.)
Cc1cnc(NC(=O)COc2cc(C(=O)O)cc3cc(Cl)cc(Cl)c23)s1 [Example 133]	> 250 °C
O=C(COc1cc(C(=O)O)cc2cc(Cl)cc(Cl)c12)NCc1ccc(OCc2nnn[nH]2)cc1 [Example 126]	> 236 °C (dec.)
O=C(COc1cc(C(=O)O)cc2cc(Cl)cc(Cl)c12)NCc1cccc(Cc2nnn[nH]2)c1 [Example 119]	243 to 244 °C

Consider the record given below.
### Prompt Quick check: melting point of COCC(Oc1cc(C(=O)O)cc2cc(Cl)cc(Cl)c12)C(=O)Nc1ccccc1OCC(=O)O (stereo not drawn) [Example 131] ?
### Response 224 to 225 °C
